# TEST_SYSTEM: T1, human FOLR1 recombinant protein (extracellular domain of human folate receptor alpha) (human, UniProt P15328 25-233)
# T1 construct: Bought recombinant protein (Sino Biological); also called hFOLR1; FR-alpha
# T1 sequence (P15328 25-233): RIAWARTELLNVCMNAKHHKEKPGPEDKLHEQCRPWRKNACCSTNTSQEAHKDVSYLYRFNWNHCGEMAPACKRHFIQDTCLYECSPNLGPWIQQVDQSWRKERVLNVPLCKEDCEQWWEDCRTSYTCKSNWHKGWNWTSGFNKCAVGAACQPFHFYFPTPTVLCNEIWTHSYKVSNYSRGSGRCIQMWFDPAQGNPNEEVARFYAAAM
# ASSAY_OVERVIEW: SPR (Biacore T200), single cycle kinetics, human FOLR1 immobilized on CM5, untagged VHH as analyte, 1:1 fit
RECORDED_ENDPOINT: kon (M⁻¹ s⁻¹)
Supply the numeric figure in M⁻¹ s⁻¹, leaving out any unit text.

Illustrative cases are given below, each with its answer.
untagged N64S variant of VHH A1 (VHH, also called A1-N64S) VHH: DVQLVESGGGLVQPGGSLRLSCAASESIFSRNHMSWYRQAPGKQRELAAIITSDGSTNYPDSVKGRFTISRDNAKNTVYLQMNSLKPEDTAVYYCNTFGRSVAGFYDYWGQGTQVTVSS :: 2.5e+06
untagged M28A-E90Q variant of VHH A2 (VHH, also called A2-M28A-E90Q) VHH: DVQLVESGGGLVQAGGSLRLSCAADEAKFSNYDLAWYRRAPGKQRELAAIITSGGSTNYPDSVKGRFTISRDNAKNTVYLQMNSLKPEDTAVYYCNALRPWPQFSDYWGQGTQVTVSS :: 2e+06
untagged E90Q variant of VHH A2 (VHH, also called A2-E90Q) VHH: DVQLVESGGGLVQAGGSLRLSCAADEMKFSNYDLAWYRRAPGKQRELAAIITSGGSTNYPDSVKGRFTISRDNAKNTVYLQMNSLKPEDTAVYYCNALRPWPQFSDYWGQGTQVTVSS :: 2.3e+06
untagged N64E variant of VHH A1 (VHH, also called A1-N64E) VHH: DVQLVESGGGLVQPGGSLRLSCAASESIFSRNHMSWYRQAPGKQRELAAIITSDGETNYPDSVKGRFTISRDNAKNTVYLQMNSLKPEDTAVYYCNTFGRSVAGFYDYWGQGTQVTVSS :: 1.8e+06
untagged K29R-E90Q variant of VHH A2 (VHH, also called A2-K29R-E90Q) VHH: DVQLVESGGGLVQAGGSLRLSCAADEMRFSNYDLAWYRRAPGKQRELAAIITSGGSTNYPDSVKGRFTISRDNAKNTVYLQMNSLKPEDTAVYYCNALRPWPQFSDYWGQGTQVTVSS :: 1.9e+06

Please look up its kon: untagged K29Q-E90Q variant of VHH A2 (VHH, also called A2-K29Q-E90Q) VHH: DVQLVESGGGLVQAGGSLRLSCAADEMQFSNYDLAWYRRAPGKQRELAAIITSGGSTNYPDSVKGRFTISRDNAKNTVYLQMNSLKPEDTAVYYCNALRPWPQFSDYWGQGTQVTVSS
1.8e+06

Next entry: untagged D59E variant of VHH A1 (VHH, also called A1-D59E) VHH: DVQLVESGGGLVQPGGSLRLSCAASESIFSRNHMSWYRQAPGKQRELAAIITSEGNTNYPDSVKGRFTISRDNAKNTVYLQMNSLKPEDTAVYYCNTFGRSVAGFYDYWGQGTQVTVSS
2.3e+06

Next entry: untagged N64Q variant of VHH A1 (VHH, also called A1-N64Q) VHH: DVQLVESGGGLVQPGGSLRLSCAASESIFSRNHMSWYRQAPGKQRELAAIITSDGQTNYPDSVKGRFTISRDNAKNTVYLQMNSLKPEDTAVYYCNTFGRSVAGFYDYWGQGTQVTVSS
2.3e+06

Next entry: untagged M28T-E90Q variant of VHH A2 (VHH, also called A2-M28T-E90Q; A2-M28TE90Q) VHH: DVQLVESGGGLVQAGGSLRLSCAADETKFSNYDLAWYRRAPGKQRELAAIITSGGSTNYPDSVKGRFTISRDNAKNTVYLQMNSLKPEDTAVYYCNALRPWPQFSDYWGQGTQVTVSS
2.3e+06
